// cross-study collection: IC50 for Arachidonate 5-lipoxygenase-activating protein (Homo sapiens)
property measured: IC50 (nM)

Worked cases, answers included:
{"molecule": "CC1Cc2c(OCc3ccc4ccccc4n3)ccc3c2c(c(CSc2ccccc2C(=O)O)n3Cc2ccc(Cl)cc2)S1 (stereo unspecified)", "unit tag": "nM", "result value": 72}
{"molecule": "Cc1ccc(-c2ccc(Cn3c(CC(C)(C)C(=O)O)c(SC(C)(C)C)c4cc(OCc5ccccn5)ccc43)cc2)cn1", "unit tag": "nM", "result value": 6.5}
{"molecule": "Oc1ccc(OCc2ccc3ccccc3n2)cc1C1(c2ccccc2)CC2CCC1C2 (stereo unspecified)", "unit tag": "nM", "result value": 13.2}
{"molecule": "OCCOc1ccc(C2(c3ccc(OCCO)cc3)CC3CCC2C3)cc1 (stereo unspecified)", "unit tag": "nM", "result value": 387}
{"molecule": "CC(C)(C)Sc1c(CC(C)(C)C(=O)O)n(Cc2ccc(-c3cnccn3)cc2)c2ccc(OCc3ccccn3)cc12", "unit tag": "nM", "result value": 28}

I. c1ccc(COc2ccc(OCc3ccc4ccccc4n3)cc2C2(c3ccccc3)CC3CCC2C3)cc1 (stereo unspecified)
II. CCNc1cnc(-c2nc(C3(c4ccc(-c5cnc(N)nc5)nc4)CCC3)no2)cn1
III. COc1ccc(COc2ccc3c4c2CC(C)Sc4c(CSc2ccccc2C(=O)O)n3Cc2ccc(Cl)cc2)nc1 (stereo unspecified)
IV. O=C(O)COc1ccc(OCc2ccc3ccccc3n2)cc1C1(c2ccccc2)CC2CCC1C2 (stereo unspecified)
V. O=C(O)CCCOc1ccc(OCc2ccc3ccccc3n2)cc1C1(c2ccccc2)CC2CCC1C2 (stereo unspecified)
Sort low-to-high on IC50, please. Record the ranking as a list of labels in the requested order.
II, V, I, IV, III
(II: 2.4 nM, V: 3.5 nM, I: 8.6 nM, IV: 14 nM, III: 370 nM)

A. O=C(O)c1ccc(OCc2ccc3ccccc3n2)cc1C1(c2ccccc2)CC2CCC1C2 (stereo unspecified)
B. COc1ccc(-c2ccc(Cn3c(CC(C)(C)C(=O)O)c(S(=O)(=O)C(C)(C)C)c4cc(OCc5ccccn5)ccc43)cc2)cn1
C. c1ccc(C2(c3cc(OCc4cccnc4)ccc3OCc3ccccn3)CC3CCC2C3)cc1 (stereo unspecified)
Sort low-to-high on IC50, please. Record the ranking as a list of labels in the requested order.
A, C, B
(A: 12.4 nM, C: 134 nM, B: 205 nM)

I. COCCn1cc(-c2nc(C3(c4ccc(-c5cnc(N)nc5)nc4)CCC3)no2)cn1
II. CN(C)CCOc1ccc(OCc2ccc3ccccc3n2)cc1C1(c2ccccc2)CC2CCC1C2 (stereo unspecified)
For the pair I and II , which member has the lower IC50 number? Indicate your choice by writing its label.
II
(II: 6.5 nM, I: 17 nM)

I. Oc1ccc(OCc2ccc3ccccc3n2)cc1C1(c2ccccc2)CCCC1
II. Oc1ccc(C2(c3ccc(OCc4ccc5ccccc5n4)cc3)CC3CCC2C3)cc1 (stereo unspecified)
III. N#CCn1cc(-c2nc(C3(c4ccc(-c5cnc(N)cn5)nc4)CCC3)no2)cn1
Highest IC50 first, then in falling order down to the smallest. Record the ranking as a list of labels in the requested order.
II, III, I
(II: 145 nM, III: 48 nM, I: 22 nM)

1. CC1Cc2c(OCc3ccccn3)ccc3c2c(c(CC(C)(C)C(=O)O)n3Cc2ccc(Cl)cc2)S1 (stereo unspecified)
2. COc1nc(-c2ccc(Cn3c(CC(C)(C)C(=O)O)c(SC(C)(C)C)c4cc(OCc5ccccn5)ccc43)cc2)cs1
For the pair 1 and 2 , which member has the lower IC50 number? Indicate your choice by writing its label.
2
(2: 3.3 nM, 1: 110 nM)

A. COC(=O)c1ccc(OCc2ccc3ccccc3n2)cc1C1(c2ccccc2)CC2CCC1C2 (stereo unspecified)
B. CC1Cc2c(OCc3cc4ccccc4cn3)ccc3c2c(c(CC(C)(C)C(=O)O)n3Cc2ccc(Cl)cc2)S1 (stereo unspecified)
Which has the higher IC50, A or B ? Indicate your choice by writing its label.
B

P. c1ccc(C2(c3cc(OCc4nc5ccccc5s4)ccc3OCc3ccccn3)CC3CCC2C3)cc1 (stereo unspecified)
Q. O=C(O)COc1ccc(C2(c3ccc(OCc4ccc5ccccc5n4)cc3)CC3CCC2C3)cc1 (stereo unspecified)
Which has the higher IC50, P or Q ? Indicate your choice by writing its label.
Q

P. O=C(Nc1cccnc1)Oc1ccc(OCc2nc3ccccc3s2)cc1C1(c2ccccc2)CC2CCC1C2 (racemic)
Q. CCCCOc1ccc(OCc2ccc3ccccc3n2)cc1C1(c2ccccc2)CC2CCC1C2 (stereo unspecified)
Which has the higher IC50, P or Q ? Indicate your choice by writing its label.
Q
(Q: 6 nM, P: 2.8 nM)
